- Assay Procedure: clinical
- Format: in vivo, human
- Test Settings: human, in vivo, oral, Study day 22; read-out: Cmax Mean
- Procedure: Similarly, patients were readmitted to the clinic the preceding night dosing on week 4, day 1, and remained at the clinic until pharmacokinetic sampling was completed on Day 3 of that week. Analytical determination of pharmacokinetic parameters was conducted in patients who provided at least one post‐dose blood sample. The study weeks were counted consecutively starting from week 1 for pharmacokinetic sampling. […]
Measurement Name: Cmax (ng/mL)
Your answer should be a plain number; it is taken to be in ng/mL.

Name the recorded Cmax for CC(=O)O[C@H]1C(=O)[C@@]2(C)[C@H]([C@H](OC(=O)c3ccccc3)[C@]3(O)C[C@H](OC(=O)[C@H](O)[C@@H](NC(=O)c4ccccc4)c4ccccc4)C(C)=C1C3(C)C)[C@]1(OC(C)=O)CO[C@@H]1C[C@@H]2O [Paclitaxel] . 398

Source of measurements: paper PMC11831190
